B1: CPEB3 Ribozyme (parent)
chain: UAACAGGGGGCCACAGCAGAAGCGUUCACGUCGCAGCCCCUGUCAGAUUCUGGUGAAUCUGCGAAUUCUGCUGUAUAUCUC

- Variants of: B1
- Experimental Details: self-cleavage, relative activity (ratio to wild type); higher = more cleavage; in vitro, sequencing
Outcome: label 1 for self-cleavage of at least 0.3; label 0 for anything lower.

These solved cases illustrate the format of a correct answer.
>  <Mutation Notation>
A2G G42U

>  <Label Class>
label 1

$$$$
>  <Mutation Notation>
U43C G55C

>  <Label Class>
label 1

$$$$
>  <Mutation Notation>
C23A A47U

>  <Label Class>
label 1

$$$$
>  <Mutation Notation>
U66A U74A

>  <Label Class>
label 1

$$$$
>  <Mutation Notation>
A35U U80G

>  <Label Class>
label 1

$$$$
>  <Mutation Notation>
C40A U76C

>  <Label Class>
label 1

$$$$
>  <Mutation Notation>
G55A A57U

>  <Label Class>
label 1

$$$$
>  <Mutation Notation>
U26C G63A

>  <Label Class>
label 1

$$$$
>  <Mutation Notation>
U25G A65U

>  <Label Class>
label 0

$$$$
>  <Mutation Notation>
A13G G53U

>  <Label Class>
label 1

$$$$

Decide: is the reported value of self-cleavage for A47G U72A equal to or greater than 0.3? label 1

Entry C4U U49C : is its self-cleavage no less than 0.3? label 1

# bool: self-cleavage of A47G C81U >= 0.3 label 1

Answer whether self-cleavage of C62G U72C is greater than or equal to 0.3. label 0

Reported self-cleavage at or above 0.3? C37A G52U label 1

Quick check: does C14A G53A have self-cleavage greater than or equal to 0.3? label 1

Evaluate A18G A21U : self-cleavage at minimum 0.3? label 1

Is reported self-cleavage greater than or equal to 0.3 here: A15G U25A label 0

Hello, I need to know if U67C G70U has measured self-cleavage not below 0.3. Thanks! label 0

Given U66A U80C , state whether its self-cleavage is at least 0.3. label 1

Entry A21G C81U : is its self-cleavage no less than 0.3? label 1
